- System: P. berghei berghei (ANKA)
- ASSAY_REMARKS: Causal prophylactic activity in the rodent malaria model (sporozoite-infected mice, single i.v. treatment 3 h after inoculation)
- Type: in vivo, souris Swiss OF1
- MEASUREMENT_CONTEXT: single i.v. injection 3 h after sporozoite inoculation
Could you please report measured dose minimale effective for the items listed next?

Record COc1cc(NC(C)CCCNC(=O)[C@@H](N)CC(C)C)c2ncccc2c1 (stereo partly shown) . Reported dose minimale effective: 7,6 mg Pq/kg

Record COc1cc(NC(C)CCCNC(=O)[C@@H](N)CCCCN)c2ncccc2c1 (stereo partly shown) . Reported dose minimale effective: 1,7 mg Pq/kg

Record COc1cc(NC(C)CCCNC(=O)[C@@H](N)Cc2ccccc2)c2ncccc2c1 (stereo partly shown) . Reported dose minimale effective: 1,8 mg Pq/kg

Record COc1cc(NC(C)CCCNC(=O)[C@H](C)N)c2ncccc2c1 (stereo partly shown) . Reported dose minimale effective: 4 mg Pq/kg
